TARGET_UNDER_TEST: Glycogen synthase kinase-3 beta (Homo sapiens) (UniProt P49841)
Sequence (P49841 whole entry, looked up): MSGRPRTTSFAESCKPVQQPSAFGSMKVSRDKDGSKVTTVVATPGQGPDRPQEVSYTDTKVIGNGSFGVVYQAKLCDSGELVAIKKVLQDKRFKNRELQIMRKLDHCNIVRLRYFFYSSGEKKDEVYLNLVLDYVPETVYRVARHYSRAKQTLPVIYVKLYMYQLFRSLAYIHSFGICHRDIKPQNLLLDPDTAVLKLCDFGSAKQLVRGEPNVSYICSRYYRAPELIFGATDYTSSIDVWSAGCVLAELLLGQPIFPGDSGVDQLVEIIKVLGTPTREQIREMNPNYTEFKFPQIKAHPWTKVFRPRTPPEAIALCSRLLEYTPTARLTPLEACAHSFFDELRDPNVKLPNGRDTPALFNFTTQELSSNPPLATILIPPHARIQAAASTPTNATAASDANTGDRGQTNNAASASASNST
PROTOCOL_DESCRIPTION: Inhibition of human GSK3-beta assessed as remaining enzyme activity at 10 uM
READOUT_LABEL: Activity (%)

[P] CC1=NCCNC2=C1[C@H](c1ccc(F)cc1)N(c1ccccn1)C2=O
[Q] Cc1cc(/C=C2\SC(=S)NC2=O)c(C)n1-c1cccc([N+](=O)[O-])c1
[R] O=C1NC(=S)S/C1=C\c1ccc(O)c([N+](=O)[O-])c1
List these items ordered by Activity, big to small. # format: label list in the order the request specifies
P, Q, R

---

TARGET_UNDER_TEST: Glycogen synthase kinase-3 beta (Homo sapiens)
PROTOCOL_DESCRIPTION: Inhibition of human GSK3-beta assessed as remaining enzyme activity at 10 uM
READOUT_LABEL: Activity (%)

[[record]]
structure_string = "COc1ccc(-c2ccc(/C=C3\\SC(=S)NC3=O)o2)c([N+](=O)[O-])c1"
target_under_test = "Glycogen synthase kinase-3 beta (Homo sapiens)"
unit_descriptor = "%"
observed = 5

[[record]]
structure_string = "COc1cc(/C=C2\\SC(=S)NC2=O)cc(Br)c1OCc1ccccc1C"
target_under_test = "Glycogen synthase kinase-3 beta (Homo sapiens)"
unit_descriptor = "%"
observed = 6

[[record]]
structure_string = "COc1ccc2c(c1)/C(=C1/SC(=S)NC1=O)C(=O)N2"
target_under_test = "Glycogen synthase kinase-3 beta (Homo sapiens)"
unit_descriptor = "%"
observed = 84

[[record]]
structure_string = "Cc1ccc(S(=O)(=O)n2cc(/C=C3\\SC(=S)NC3=O)c3ccccc32)cc1"
target_under_test = "Glycogen synthase kinase-3 beta (Homo sapiens)"
unit_descriptor = "%"
observed = 67

[[record]]
structure_string = "O=C1NC(=O)/C(=C/c2ccc(-c3cc([N+](=O)[O-])ccc3Cl)o2)S1"
target_under_test = "Glycogen synthase kinase-3 beta (Homo sapiens)"
unit_descriptor = "%"
observed = 8

[[record]]
structure_string = "Cc1ccc(/N=C2/NC(=O)S/C2=C\\c2ccccc2Cl)cc1"
target_under_test = "Glycogen synthase kinase-3 beta (Homo sapiens)"
unit_descriptor = "%"
observed = 18


[A] O=C1CC(C(F)(F)F)=NC(Sc2c(-c3ccccc3)c3cc([N+](=O)[O-])ccc3[nH]c2=O)=N1
[B] CCCNc1nc2ccccn2c(=O)c1/C=C1\SC(=S)NC1=O
[C] O=C1NC(=S)S/C1=C\c1ccccc1OS(=O)(=O)c1ccccc1[N+](=O)[O-]
Could you please order the items by Activity, going from the lowest number to the highest? # format: label list in the order the request specifies
C, A, B
(C: 14%, A: 41%, B: 95%)
